tested on: HCT-15 colon; assay: NCI tumour cell line growth inhibition, 48 h
value_type: TGI

Qu. Looking for the measured TGI of CCCCN(c1ccccc1)c1ncnc2c1cnn2C , can you help?
Ans. > 100 µM

Qu. Looking for the measured TGI of CC1=CSC2=NC(c3ccc(Cl)c(Cl)c3)=CC(c3ccc(Cl)cc3)N12 (centres undefined) , can you help?
Ans. > 100 µM

Qu. Looking for the measured TGI of O=C1OS2(OCc3cccc4cccc2c34)c2ccccc21 (centres undefined) , can you help?
Ans. > 100 µM

Qu. Looking for the measured TGI of O=C(Oc1ccc(O)c2c(=O)n3c(cc12)[nH]c1ccccc13)c1ccccc1 , can you help?
Ans. 28.2 µM

Qu. Looking for the measured TGI of Cc1cc(/C=C2\SC(=Nc3ccccc3)N(C3CCCC3)C2=O)c(C)n1-c1ccc(Cl)cc1 , can you help?
Ans. > 100 µM

Qu. Looking for the measured TGI of CCOC(=O)c1c(N2CCOCC2)[nH]c(=O)c(C(c2ccc(OC)cc2)c2c(O)c(C(=O)OCC)c(N3CCOCC3)[nH]c2=O)c1O , can you help?
Ans. > 100 µM

Qu. Looking for the measured TGI of COc1ccc(NC2Oc3cc4c(cc3C(c3cc(OC)c(O)c(OC)c3)C2C)OCO4)cc1 (centres undefined) , can you help?
Ans. 11.3 µM

Qu. Looking for the measured TGI of COc1cc2c(cc1C)NC(=O)/C2=C\c1cc(OC)c(OC)c(OC)c1 , can you help?
Ans. > 100 µM

Please turn your attention to the following entry.
Qu. Looking for the measured TGI of COC(=O)c1c(-c2ccccc2)cc2c3cc(-c4ccccc4)c(C(=O)OC)n3c3ccccc3n12 , can you help?
Ans. > 100 µM

----------
test system: NCI-H226 lung; experiment: NCI tumour cell line growth inhibition, 48 h; in the data active = GI50 below about 0.43 µM; inactive = the rest
Respond with a class label; see active, inactive

Answered examples (3):
Qu. Write down the call the test reported for this molecule. Item: O=C(Nc1ccccc1C(F)(F)F)c1cccc(NC2=C(Cl)C(=O)N(Cc3ccccc3)C2=O)c1
Ans. inactive

Qu. Write down the call the test reported for this molecule. Item: CC(C)c1ccc(Cc2cnc(NC(=O)c3cc(Br)cs3)s2)cc1
Ans. inactive

Qu. Write down the call the test reported for this molecule. Item: COc1cc2nc(-c3ccc(C(F)(F)F)cc3)cc(OCCCN3CCOCC3)c2cc1OC
Ans. active

---
Qu. Write down the call the test reported for this molecule. Item: S=C(Nc1ccc(-c2nc3ccccc3[nH]2)cc1)NC1CCCCC1
Ans. inactive

Qu. Write down the call the test reported for this molecule. Item: Nc1c(C(=O)c2ccccc2)sc2nc(-c3cccs3)ccc12
Ans. inactive

Qu. Write down the call the test reported for this molecule. Item: COc1cc(OC)c(/C=C/c2ccc3ccccc3[n+]2C)c(OC)c1
Ans. inactive

Qu. Write down the call the test reported for this molecule. Item: COc1cc(OC2OC(C)C(O)C(O)C2O)cc2oc(-c3ccc(O)cc3)c(CC=C(C)C)c(=O)c12 (stereo unspecified)
Ans. inactive

Qu. Write down the call the test reported for this molecule. Item: CCOc1ccc(/C=C/C(=O)c2ccccc2)cc1
Ans. inactive

Qu. Write down the call the test reported for this molecule. Item: COc1cc(-c2cnn(C)c2)ccc1Nc1ncc2ccnc(N[C@@H](C)C(C)(C)C)c2n1
Ans. inactive

Qu. Write down the call the test reported for this molecule. Item: O=C(Oc1ccc(O)c2c(=O)n3c(cc12)[nH]c1ccccc13)c1ccccc1
Ans. inactive

Qu. Write down the call the test reported for this molecule. Item: Cc1ccc(C(=O)c2oc3ccc4c(C)cc(=O)oc4c3c2C)cc1
Ans. inactive
